Each item that follows carries a reported inhibition at 0.5 h, 10 µM.
Target: ABCG2 (Homo sapiens, UniProt Q9UNQ0)
Sequence (Q9UNQ0 whole entry): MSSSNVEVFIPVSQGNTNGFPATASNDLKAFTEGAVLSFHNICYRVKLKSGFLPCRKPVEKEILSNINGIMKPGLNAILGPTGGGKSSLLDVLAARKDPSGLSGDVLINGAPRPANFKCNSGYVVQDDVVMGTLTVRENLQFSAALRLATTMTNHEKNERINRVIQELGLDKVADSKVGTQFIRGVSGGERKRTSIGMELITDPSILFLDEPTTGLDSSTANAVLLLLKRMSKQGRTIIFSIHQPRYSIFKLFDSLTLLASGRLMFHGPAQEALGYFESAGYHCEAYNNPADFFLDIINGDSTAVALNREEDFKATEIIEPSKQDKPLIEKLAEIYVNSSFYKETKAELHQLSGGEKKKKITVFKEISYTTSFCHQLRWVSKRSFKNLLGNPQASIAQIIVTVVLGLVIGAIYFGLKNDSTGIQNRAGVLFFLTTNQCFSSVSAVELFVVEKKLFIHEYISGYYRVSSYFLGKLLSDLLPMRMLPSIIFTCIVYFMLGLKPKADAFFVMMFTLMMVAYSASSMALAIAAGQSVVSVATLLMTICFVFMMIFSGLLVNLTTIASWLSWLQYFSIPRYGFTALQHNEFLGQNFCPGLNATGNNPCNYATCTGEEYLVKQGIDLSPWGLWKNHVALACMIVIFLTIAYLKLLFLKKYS
Test: Inhibition of ABCG2 (unknown origin) expressed in HEK293 cells assessed as reduction in mitoxantrone efflux at 10 uM after 30 mins by FACS method
Assay type: cell-based
Details: HEK293 cells expressing ABCG2, probe mitoxantrone
Unit % implied. Number only.

- molecule: "CC(C)n1c2c(c3c1-c1ccccc1C3=O)C(=O)C(Cc1ccccc1)(Cc1ccccc1)CC2"
  recorded_measurement: 90

For this molecule ( O=C1CCCc2c1c1c(n2CCc2ccccc2)-c2ccccc2C1=O ), measured inhibition at 0.5 h, 10 µM is 100

For this molecule ( CC1CC(=O)c2c3c(n(Cc4ccccc4)c2C1)-c1ccccc1C3=O (configuration not stated) ), measured inhibition at 0.5 h, 10 µM is 33

The origin of these recorded values is ChEMBL document CHEMBL3352248.
